Values from PubChem BioAssay (NCATS)

# test details: qHTS for identification of novel therapeutic agents for treatment of microphthalmiaassociated transcription factor (MiT) renal cell carcinoma (RCC) (AID 1963991)
# test context: TFE3-RCC viability, CellTiter-Glo, 48 h; measured here: UOK145 Z-AUC; stronger effect = lower value
Inconclusive results are not listed.
Strictly below 0.7 in z-score: true. Otherwise: false.

Req: Lab log: compare recorded z-score with 0.7; is it strictly lower for "CC(C)[C@H](N)C(=O)OCCOCn1cnc2c(=O)[nH]c(N)nc21" ?
Resp: true

Req: Lab log: compare recorded z-score with 0.7; is it strictly lower for CC1Cc2ccccc2N1NC(=O)c1ccc(Cl)c(S(N)(=O)=O)c1 (stereo not drawn) ?
Resp: true

Req: Lab log: compare recorded z-score with 0.7; is it strictly lower for "Oc1ccc(OCc2ccccc2)cc1" ?
Resp: false

Req: Lab log: compare recorded z-score with 0.7; is it strictly lower for "c1ccc2[nH]c(-c3cscn3)nc2c1" ?
Resp: true

Req: Lab log: compare recorded z-score with 0.7; is it strictly lower for "COc1cc(OC)c(C(=O)CCCN2CCCC2)c(OC)c1" ?
Resp: true

Req: Lab log: compare recorded z-score with 0.7; is it strictly lower for O=C(OC1C[C@H]2CC[C@@H](C1)[N+]21CCCC1)C(O)(c1ccccc1)c1ccccc1 (stereo partly drawn) ?
Resp: true

Req: Lab log: compare recorded z-score with 0.7; is it strictly lower for "c1cnc2cc3c(cc2n1)C1CNCC3C1" ?
Resp: true

Req: Lab log: compare recorded z-score with 0.7; is it strictly lower for "CCCCCCCCCCCCCCCCCCCCCCO" ?
Resp: true

Req: Lab log: compare recorded z-score with 0.7; is it strictly lower for "C=CCc1cc(OC)c(O)c(C(=O)NCCO)c1" ?
Resp: false

Req: Lab log: compare recorded z-score with 0.7; is it strictly lower for "O=C(O)c1cccnc1Nc1cccc(C(F)(F)F)c1" ?
Resp: true

Req: Lab log: compare recorded z-score with 0.7; is it strictly lower for "Cc1nc2n(c(=O)c1CCN1CCC(c3noc4cc(F)ccc34)CC1)CCCC2" ?
Resp: true

Req: Lab log: compare recorded z-score with 0.7; is it strictly lower for "COC(=O)N[C@H](C(=O)N[C@@H](Cc1ccccc1)[C@@H](O)CN(Cc1ccc(-c2ccccn2)cc1)NC(=O)[C@@H](NC(=O)OC)C(C)(C)C)C(C)(C)C" ?
Resp: false

Req: Lab log: compare recorded z-score with 0.7; is it strictly lower for "Nc1ccc(S(N)(=O)=O)cc1" ?
Resp: false

Req: Lab log: compare recorded z-score with 0.7; is it strictly lower for "NNc1nncc2ccccc12" ?
Resp: true

Req: Lab log: compare recorded z-score with 0.7; is it strictly lower for CC1=C(C)C(=O)C(C(CCCCCC(=O)O)c2ccccc2)=C(C)C1=O (stereo not drawn) ?
Resp: true

Req: Lab log: compare recorded z-score with 0.7; is it strictly lower for "O=C(O)c1cn(-c2ccc(F)cc2)c2cc(N3CCNCC3)c(F)cc2c1=O" ?
Resp: true

Req: Lab log: compare recorded z-score with 0.7; is it strictly lower for "CC1=C(C(=O)O)N2C(=O)[C@@H](NC(=O)[C@H](N)C3=CCC=CC3)[C@H]2SC1" ?
Resp: true

Req: Lab log: compare recorded z-score with 0.7; is it strictly lower for C[Se]CCC(N)C(=O)O (stereo not drawn) ?
Resp: true

Req: Lab log: compare recorded z-score with 0.7; is it strictly lower for Cc1c(OCC(F)(F)F)ccnc1CS(=O)c1nc2ccccc2[nH]1 (stereo not drawn) ?
Resp: true

Req: Lab log: compare recorded z-score with 0.7; is it strictly lower for "CNC[C@@H](O)[C@@H](O)[C@H](O)[C@H](O)CO" ?
Resp: false

Req: Lab log: compare recorded z-score with 0.7; is it strictly lower for "CC(=O)NC[C@H]1CN(c2ccc(N3CCOCC3)c(F)c2)C(=O)O1" ?
Resp: false

Req: Lab log: compare recorded z-score with 0.7; is it strictly lower for "CC(C)c1nc(CN(C)C(=O)N[C@H](C(=O)N[C@@H](Cc2ccccc2)C[C@H](O)[C@H](Cc2ccccc2)NC(=O)OCc2cncs2)C(C)C)cs1" ?
Resp: true
